Biological target: ZFAT_C392 (Homo sapiens)
Construct: endogenous in cells; host or cells: 22Rv1
Sequence (Q9P243 whole entry): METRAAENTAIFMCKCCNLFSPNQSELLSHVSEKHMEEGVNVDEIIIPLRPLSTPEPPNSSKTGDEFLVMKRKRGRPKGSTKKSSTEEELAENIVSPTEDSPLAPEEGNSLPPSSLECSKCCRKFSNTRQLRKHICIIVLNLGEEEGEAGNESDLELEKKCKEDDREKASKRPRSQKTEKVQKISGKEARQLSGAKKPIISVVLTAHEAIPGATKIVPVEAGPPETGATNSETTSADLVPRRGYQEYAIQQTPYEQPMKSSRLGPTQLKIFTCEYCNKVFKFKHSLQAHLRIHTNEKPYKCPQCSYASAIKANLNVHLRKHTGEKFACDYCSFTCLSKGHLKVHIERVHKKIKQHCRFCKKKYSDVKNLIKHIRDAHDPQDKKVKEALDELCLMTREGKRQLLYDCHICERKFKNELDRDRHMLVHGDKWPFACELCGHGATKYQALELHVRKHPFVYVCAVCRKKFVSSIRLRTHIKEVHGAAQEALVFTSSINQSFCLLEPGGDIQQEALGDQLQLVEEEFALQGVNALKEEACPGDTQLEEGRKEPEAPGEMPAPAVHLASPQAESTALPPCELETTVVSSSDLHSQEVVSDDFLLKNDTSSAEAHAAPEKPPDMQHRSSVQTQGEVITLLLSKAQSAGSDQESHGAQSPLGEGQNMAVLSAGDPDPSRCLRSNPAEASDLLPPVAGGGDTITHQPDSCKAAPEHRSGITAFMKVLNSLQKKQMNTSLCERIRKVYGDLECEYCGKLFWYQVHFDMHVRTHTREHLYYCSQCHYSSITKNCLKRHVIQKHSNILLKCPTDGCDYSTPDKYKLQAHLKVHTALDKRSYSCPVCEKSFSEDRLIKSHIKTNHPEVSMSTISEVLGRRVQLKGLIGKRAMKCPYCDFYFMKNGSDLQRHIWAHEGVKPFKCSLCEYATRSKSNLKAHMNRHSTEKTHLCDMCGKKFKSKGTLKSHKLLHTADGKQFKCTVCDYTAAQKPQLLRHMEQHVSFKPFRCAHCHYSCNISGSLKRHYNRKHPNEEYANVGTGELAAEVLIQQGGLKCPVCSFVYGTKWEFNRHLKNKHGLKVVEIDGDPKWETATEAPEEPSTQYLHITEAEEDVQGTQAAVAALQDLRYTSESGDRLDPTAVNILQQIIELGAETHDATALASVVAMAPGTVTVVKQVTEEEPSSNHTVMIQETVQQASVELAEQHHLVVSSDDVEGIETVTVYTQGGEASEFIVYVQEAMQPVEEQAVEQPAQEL
Experiment: IA-DTB cysteine engagement
Assay type: binding
Conditions: 22Rv1 cells, 20 μM probe, 1 h, relative to DMSO
Method: Sample preparation: Cells (adherent: 15 cm dishes, suspension: 2 million cells/mL) were treated with electrophilic probes in situ for indicated times and concentrations, washed with ice-cold PBS, and flash frozen in liquid nitrogen. […] Whole cell lysates protein content was measured using a standard DC protein assay (Bio-Rad) and 500 μL (2 mg/mL protein content) were treated with 5 μL of 10 mM 1A-DTB (in DMSO) for 1 h at ambient temperature with occasional vortexing. […]
readout type: % engagement ZFAT_C392 (%)

- C=CC(=O)N1C[C@@H](c2ccc(Br)cc2)[C@H]1C(=O)Nc1cccc2cccnc12 [MY-1A]: 32.5
- C=CC(=O)N1C[C@H](c2ccc(Br)cc2)[C@H]1C(=O)Nc1cccc2cccnc12 [MY-3A]: 17.5
- C=CC(=O)N1C[C@H](c2ccc(Br)cc2)[C@H]1C(=O)Nc1cccc2cccnc12 [MY-3B]: 68.5
- C=CC(=O)N1C[C@H](c2ccc(Br)cc2)[C@@H]1C(=O)Nc1cccc2cccnc12 [MY-1B]: 39

The reported numbers originate from patent US20250034216A1.
